Measured values drawn from PubChem BioAssay AID1656 for this set.

# inhibition per record follows
experiment: inhibitors of hepatocyte lipid droplet formation, primary screen, imaging, high-throughput imaging, BODIPY stain (AID 1656); settings: AML12 mouse hepatocytes, oleate lipid droplets, at 6.5 µM; stronger effect = higher value
The campaign covered roughly 240,000 compounds. About 950 (0.4%) were called active. Shown is part of a subset that was picked to be rich in actives.
Provide only the numeric value, understood in %.

Examples with answers:
- compound: "Cc1cc(C(C)(C)C)n2nc(C)c(-c3ccccc3)c2n1"
  units text: "%"
  quantitative result: 2
- compound: "CC(Nc1nc(C(F)(F)F)nc2ccccc12)c1cccs1 (stereo unspecified)"
  units text: "%"
  quantitative result: -12.3
- compound: "O=C1Nc2ccc(Br)cc2/C1=N/N=C/C1=C(N2CCOCC2)C(=C\\c2ccccc2)/CC1"
  units text: "%"
  quantitative result: 55.6
- compound: "C(=N\\N1CCN(c2ccccn2)CC1)/C1=C(N2CCOCC2)C(=C/c2ccccc2)/CC1"
  units text: "%"
  quantitative result: -4.6
- compound: "Cc1cccn2c(=O)c(/C=C(\\C#N)C(N)=O)c(N3CCCCCC3)nc12"
  units text: "%"
  quantitative result: 1.2

According to the records, this compound `Cc1cccc2c1cnn2C(=O)CCC(=O)NC1CCCCC1` displays inhibition of -7.9
